- Tested on: H3255
- Assay summary: relative viability (nuclei count vs DMSO), 5 days (fraction); higher = more cells survive
- Details: first compound 0.03162 µM
Measured endpoint: relative viability

Worked examples, 2 molecules total:
Cc1cn(-c2cc(NC(=O)c3ccc(C)c(Nc4nccc(-c5cccnc5)n4)c3)cc(C(F)(F)F)c2)cn1 [Nilotinib] + C[C@]1(O)C[C@@H](c2nc(-c3ccc4ccc(-c5ccccc5)nc4c3)c3c(N)nccn32)C1 [Linsitinib] (partner 1 µM)    0.875
Cc1cn(-c2cc(NC(=O)c3ccc(C)c(Nc4nccc(-c5cccnc5)n4)c3)cc(C(F)(F)F)c2)cn1 [Nilotinib] + CC1(C)CCC(c2ccc(Cl)cc2)=C(CN2CCN(c3ccc(C(=O)NS(=O)(=O)c4ccc(N[C@H](CCN5CCOCC5)CSc5ccccc5)c(S(=O)(=O)C(F)(F)F)c4)cc3)CC2)C1 [Navitoclax] (partner 0.5 µM)    0.246

Form field relative viability, entry Cc1cn(-c2cc(NC(=O)c3ccc(C)c(Nc4nccc(-c5cccnc5)n4)c3)cc(C(F)(F)F)c2)cn1 [Nilotinib] + CS(=O)(=O)CCNCc1ccc(-c2ccc3ncnc(Nc4ccc(OCc5cccc(F)c5)c(Cl)c4)c3c2)o1 [Lapatinib] (partner 2 µM) : 0.24

---

- System: EPLC-272H
- Assay summary: relative viability (nuclei count vs DMSO), 5 days (fraction); higher = more cells survive
- Details: first compound 0.2 µM
Measured endpoint: relative viability
Output spec: single numeric token, no unit.

Worked examples, 3 molecules total:
CN1CCN(CCOc2cc(OC3CCOCC3)c3c(Nc4c(Cl)ccc5c4OCO5)ncnc3c2)CC1 [Saracatinib] + C[C@@H](Oc1cc(-c2cnn(C3CCNCC3)c2)cnc1N)c1c(Cl)ccc(F)c1Cl [Crizotinib] (partner 1 µM)    0.826
CN1CCN(CCOc2cc(OC3CCOCC3)c3c(Nc4c(Cl)ccc5c4OCO5)ncnc3c2)CC1 [Saracatinib] + NC(=O)Nc1cc(-c2cccc(F)c2)sc1C(=O)N[C@H]1CCCNC1 [AZD7762] (partner 0.2 µM)    0.229
CCNC(=O)c1noc(-c2cc(C(C)C)c(O)cc2O)c1-c1ccc(CN2CCOCC2)cc1 [Luminespib] + CC(=O)c1c(C)c2cnc(Nc3ccc(N4CCNCC4)cn3)nc2n(C2CCCC2)c1=O [Palbociclib] (partner 0.5 µM)    0.0905

Form field relative viability, entry CCNC(=O)c1noc(-c2cc(C(C)C)c(O)cc2O)c1-c1ccc(CN2CCOCC2)cc1 [Luminespib] + CS(=O)(=O)CCNCc1ccc(-c2ccc3ncnc(Nc4ccc(OCc5cccc(F)c5)c(Cl)c4)c3c2)o1 [Lapatinib] (partner 2 µM) : 0.153

---

- Tested on: NCI-H1734
- Assay summary: relative viability (nuclei count vs DMSO), 5 days (fraction); higher = more cells survive
- Details: first compound 0.6325 µM
Measured endpoint: relative viability

Worked examples, 2 compounds total:
CN1CCN(CCOc2cc(OC3CCOCC3)c3c(Nc4c(Cl)ccc5c4OCO5)ncnc3c2)CC1 [Saracatinib] + Nc1ncn([C@H]2C[C@H](O)[C@@H](CO)O2)c(=O)n1 [Decitabine] (partner 2 µM)    0.491
CN1CCN(CCOc2cc(OC3CCOCC3)c3c(Nc4c(Cl)ccc5c4OCO5)ncnc3c2)CC1 [Saracatinib] + C[C@]1(O)C[C@@H](c2nc(-c3ccc4ccc(-c5ccccc5)nc4c3)c3c(N)nccn32)C1 [Linsitinib] (partner 1 µM)    0.713

Now look at this entry.
Form field relative viability, entry CN1CCN(CCOc2cc(OC3CCOCC3)c3c(Nc4c(Cl)ccc5c4OCO5)ncnc3c2)CC1 [Saracatinib] + CC1(C)CCC(c2ccc(Cl)cc2)=C(CN2CCN(c3ccc(C(=O)NS(=O)(=O)c4ccc(N[C@H](CCN5CCOCC5)CSc5ccccc5)c(S(=O)(=O)C(F)(F)F)c4)cc3)CC2)C1 [Navitoclax] (partner 0.5 µM) : 0.767

---

- System: NCI-H1651
- Assay summary: relative viability (nuclei count vs DMSO), 5 days (fraction); higher = more cells survive
- Details: first compound 0.2 µM
Measured endpoint: relative viability
Output spec: single numeric token, no unit.

Worked examples, 5 compounds total:
CN1CCN(CCOc2cc(OC3CCOCC3)c3c(Nc4c(Cl)ccc5c4OCO5)ncnc3c2)CC1 [Saracatinib] + CS(=O)(=O)N1CCN(Cc2cc3nc(-c4cccc5[nH]ncc45)nc(N4CCOCC4)c3s2)CC1 [Pictilisib] (partner 1 µM)    0.499
Cc1csc(=NC2CCCCC2)n1/N=C/c1ccc(O)c(O)c1O [MIM1] + CC(C)C[C@H](NC(=O)[C@H](Cc1ccccc1)NC(=O)c1cnccn1)B(O)O [Bortezomib] (partner 0.002 µM)    0.92
Cc1csc(=NC2CCCCC2)n1/N=C/c1ccc(O)c(O)c1O [MIM1] + Nc1nc2[nH]cc(CCc3ccc(C(=O)N[C@@H](CCC(=O)O)C(=O)O)cc3)c2c(=O)[nH]1 [Pemetrexed] (partner 0.2 µM)    0.57
CCNC(=O)c1noc(-c2cc(C(C)C)c(O)cc2O)c1-c1ccc(CN2CCOCC2)cc1 [Luminespib] + CC(C)C[C@H](NC(=O)[C@H](Cc1ccccc1)NC(=O)c1cnccn1)B(O)O [Bortezomib] (partner 0.002 µM)    0.793
CN1CCN(CCOc2cc(OC3CCOCC3)c3c(Nc4c(Cl)ccc5c4OCO5)ncnc3c2)CC1 [Saracatinib] + CCNC(=O)c1noc(-c2cc(C(C)C)c(O)cc2O)c1-c1ccc(CN2CCOCC2)cc1 [Luminespib] (partner 0.01 µM)    0.516

Form field relative viability, entry CN1CCN(CCOc2cc(OC3CCOCC3)c3c(Nc4c(Cl)ccc5c4OCO5)ncnc3c2)CC1 [Saracatinib] + O=C(CCCCCCC(=O)Nc1ccccc1)NO [Vorinostat] (partner 1 µM) : 0.547

Form field relative viability, entry Cc1csc(=NC2CCCCC2)n1/N=C/c1ccc(O)c(O)c1O [MIM1] + COc1cccc2cc(-c3nc([C@H]4CC[C@H](C(=O)O)CC4)n4ncnc(N)c34)[nH]c12 [OSI-027] (partner 0.5 µM) : 0.745

Form field relative viability, entry Cc1csc(=NC2CCCCC2)n1/N=C/c1ccc(O)c(O)c1O [MIM1] + NC(=O)Nc1cc(-c2cccc(F)c2)sc1C(=O)N[C@H]1CCCNC1 [AZD7762] (partner 0.2 µM) : 0.464

Form field relative viability, entry CCNC(=O)c1noc(-c2cc(C(C)C)c(O)cc2O)c1-c1ccc(CN2CCOCC2)cc1 [Luminespib] + CS(=O)(=O)CCNCc1ccc(-c2ccc3ncnc(Nc4ccc(OCc5cccc(F)c5)c(Cl)c4)c3c2)o1 [Lapatinib] (partner 2 µM) : 0.161

Form field relative viability, entry Cc1csc(=NC2CCCCC2)n1/N=C/c1ccc(O)c(O)c1O [MIM1] + O=C(CCCCCCC(=O)Nc1ccccc1)NO [Vorinostat] (partner 1 µM) : 0.509

Form field relative viability, entry Cc1csc(=NC2CCCCC2)n1/N=C/c1ccc(O)c(O)c1O [MIM1] + C[C@@H](Oc1cc(-c2cnn(C3CCNCC3)c2)cnc1N)c1c(Cl)ccc(F)c1Cl [Crizotinib] (partner 1 µM) : 0.921

Form field relative viability, entry CCNC(=O)c1noc(-c2cc(C(C)C)c(O)cc2O)c1-c1ccc(CN2CCOCC2)cc1 [Luminespib] + Cc1nc(NC(=O)N2CCC[C@H]2C(N)=O)sc1-c1ccnc(C(C)(C)C(F)(F)F)c1 [Alpelisib] (partner 2 µM) : 0.262

---

- Test system: NCI-H322M
- Assay summary: relative viability (nuclei count vs DMSO), 5 days (fraction); higher = more cells survive
- Details: first compound 0.02 µM
Catalogue of compounds with associated relative viability
Output spec: single numeric token, no unit.

Worked examples, 2 compounds total:
CCNC(=O)c1noc(-c2cc(C(C)C)c(O)cc2O)c1-c1ccc(CN2CCOCC2)cc1 [Luminespib] + Nc1nc2[nH]cc(CCc3ccc(C(=O)N[C@@H](CCC(=O)O)C(=O)O)cc3)c2c(=O)[nH]1 [Pemetrexed] (partner 0.2 µM)    0.596
CCNC(=O)c1noc(-c2cc(C(C)C)c(O)cc2O)c1-c1ccc(CN2CCOCC2)cc1 [Luminespib] + Cc1nc(NC(=O)N2CCC[C@H]2C(N)=O)sc1-c1ccnc(C(C)(C)C(F)(F)F)c1 [Alpelisib] (partner 2 µM)    0.588

Now look at this entry.
Form field relative viability, entry CN1CCN(CCOc2cc(OC3CCOCC3)c3c(Nc4c(Cl)ccc5c4OCO5)ncnc3c2)CC1 [Saracatinib] + NC(=O)Nc1cc(-c2cccc(F)c2)sc1C(=O)N[C@H]1CCCNC1 [AZD7762] (partner 0.2 µM) : 0.593

---

Catalogue of compounds with associated relative viability
- Tested on: A549
- Assay summary: relative viability (nuclei count vs DMSO), 5 days (fraction); higher = more cells survive
- Details: first compound 0.2 µM
Output spec: single numeric token, no unit.

Worked examples, 2 compounds total:
Cc1csc(=NC2CCCCC2)n1/N=C/c1ccc(O)c(O)c1O [MIM1] + CS(=O)(=O)CCNCc1ccc(-c2ccc3ncnc(Nc4ccc(OCc5cccc(F)c5)c(Cl)c4)c3c2)o1 [Lapatinib] (partner 2 µM)    0.997
CN1CCN(CCOc2cc(OC3CCOCC3)c3c(Nc4c(Cl)ccc5c4OCO5)ncnc3c2)CC1 [Saracatinib] + Cc1nc(NC(=O)N2CCC[C@H]2C(N)=O)sc1-c1ccnc(C(C)(C)C(F)(F)F)c1 [Alpelisib] (partner 2 µM)    0.718

Now look at this entry.
Form field relative viability, entry Cc1csc(=NC2CCCCC2)n1/N=C/c1ccc(O)c(O)c1O [MIM1] + Nc1ncn([C@H]2C[C@H](O)[C@@H](CO)O2)c(=O)n1 [Decitabine] (partner 2 µM) : 0.217
